- target.or.system: T1, Biotin Y46,48,51(SO3) PSGL-1(42-62) peptide (human, sulfotyrosine at Y46, Y48 and Y51; C-terminal Lys-biotin)
- T1 construct: also called fully sulfated N-terminal PSGL-1 peptide
- T1 peptide: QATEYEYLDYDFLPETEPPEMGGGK
- assay: ELISA, plate-bound mAb captures biotin peptide
- Method: Two ELISA methods were performed. One procedure detected mAb binding to its plate-immobilized target and the other measured the immobilized antibody's ability to capture biotinylated PSGL-1₄₂₋₆₂. […] The plate was incubated for 45 min at 37° C. […] After 45 min incubation at 37° C., the plate was washed, and antibody bound to plate-immobilized target was determined at A450 nm using HRP substrate (3,3′,5,5′-etramethylbenzidine (TMB)). […]
metric: pEC50
Friendly reminder that pEC50 comes from taking -log10 of the concentration in mol/L.

- binder: "03D07 (antibody, IgG4, V domains shown) VH: EVKLLESGGGLVQPGGSLRLSCAASGFTFSSYALSWVRQAPGKGLEWVSAISGSGGNTYYADSVKGRFTISRDNSKNTLYLQMNSLRAEDTAVYYCAKVVGATNYWGQGTLVTVSS VL: DIVMTQTPLSLPVTLGQPASISCRSSQSLVYSDGHTYLSWFHQRPGQSPRRLIYKVSIRDSGVPDRFSGSGSGTDFTLKISRVEAEDVGVYYCMQRLQIPLTFGGGTKVEIK"
  pEC50: 7.40

Fill in reported pEC50 for this entry: SELK1 (antibody, V domains shown, Control anti-PSGL-1 mAb; only variable domains given) VH: QVQLQQSGPGLVKPSQTLSLTCAISGDSVSSNIAAWHWIRLSPSRGLEWLGRTYYRRSKWNYDYALSVKSRININPDTSKNLFSLQLNSVTPEDTAVYYCTRGGGRAHSAWGQGTLVTVSS VL: EIVLTQSPGTLSVSPGERATLSCRASQSVSRSHLAWYQQKPGQAPRLLIFGASSRATGIPDRFSGSGSGTDFTLTISRLEPEDFAVYYCQQYGRPGVTFGQGTKVEIK
8.21

From: patent US20220396632A1
